Origin of values: patent US20240139151A1

- Assay Info: Cytotoxicity (IC50) on A10 cells
- Settings: rat, A10 vascular smooth muscle cells, IC50, concentration at which the growth of the cells is inhibited by 50% (cytotoxicity), 0-500 μM, cytotoxicity under normal glucose conditions
Property Name: IC50 (µM)
One number for each entry, in µM.

For the molecule shown here, C/C=C(/C)C(=O)O[C@H]1Cc2cc3ccc(=O)oc3cc2OC1(C)C [Decursinol angelate, decursinol angelate] , give the reported IC50.
124

----------
- System: vascular smooth cell line A10
- Settings: rat
pIC50: −log10 of the molar value.
Property Name: pIC50

Any idea what pIC50 was measured for `CC1(C)Oc2cc3oc(=O)ccc3cc2C[C@@H]1O` ?
< 3.30
